Tested on: A549
MEASUREMENT PROTOCOL: relative viability (normalised to negative control = 1, bortezomib = 0) (fraction); higher = less cytotoxic
STUDY CONDITIONS: inflammatory serum-free RHB-A with cytokines + LPS; 5 d + 24 h CellTiter-Blue; compound 30 nM; GSK126 pretreatment: 5 uM GSK126
So basically, if relative viability comes in under 0.8 it's Condition met, and if it's 0.8 or more it's Condition not met.

Example entries begin here.
O=C(NOCC(O)CO)c1cc(Br)c(F)c(F)c1Nc1ccc(I)cc1F (configuration not stated) : Condition met
C[C@@H]1CCN(C(=O)CC#N)C[C@@H]1N(C)c1ncnc2[nH]ccc12 : Condition not met
O=C1NC(=O)/C(=C/c2ccc3c(c2)OC(F)(F)O3)S1 : Condition not met
O=NN(CCCl)C(=O)NCCCl : Condition not met
CN(c1ncccc1CNc1nc(Nc2ccc3c(c2)CC(=O)N3)ncc1C(F)(F)F)S(C)(=O)=O : Condition not met

QUERY: Take the compound `NC1(c2ccc(-c3nc4ccn5c(=O)[nH]nc5c4cc3-c3ccccc3)cc2)CCC1` and say whether its relative viability is less than 0.8.
RESULT: Condition met

QUERY: Is it true that relative viability reported for `CCCCCOC(=O)Nc1nc(=O)n([C@@H]2O[C@H](C)[C@@H](O)[C@H]2O)cc1F` is less than 0.8?
RESULT: Condition not met

---

System: A549
MEASUREMENT PROTOCOL: relative viability (normalised to negative control = 1, bortezomib = 0) (fraction); higher = less cytotoxic
STUDY CONDITIONS: inflammatory serum-free RHB-A with cytokines + LPS; 5 d + 24 h CellTiter-Blue; compound 300 nM; GSK126 pretreatment: 5 uM GSK126
Where a name gives a salt, the structure may show the parent alone.
Label key: fulfilled means relative viability under 0.9; not fulfilled means relative viability of 0.9 or more.

Use the examples below as a reference point.
CNC(=O)c1ccccc1Sc1ccc2c(/C=C/c3ccccn3)n[nH]c2c1 : fulfilled
CO[C@H]1C[C@@H]2CC[C@@H](C)[C@@](O)(O2)C(=O)C(=O)N2CCCC[C@H]2C(=O)O[C@H]([C@H](C)C[C@@H]2CC[C@@H](OC(=O)C(C)(CO)CO)[C@H](OC)C2)CC(=O)[C@H](C)/C=C(\C)[C@@H](O)[C@@H](OC)C(=O)[C@H](C)C[C@H](C)/C=C/C=C/C=C/1C : fulfilled
Cn1cnc2c(F)c(Nc3ccc(Br)cc3Cl)c(C(=O)NOCCO)cc21 [AZD6244(Selumetinib)] : fulfilled
c1cncc(CN2CCC(n3ncc4c(N5CCOCC5)nc(-c5ccc6[nH]ccc6c5)nc43)CC2)c1 : fulfilled
O=C1NC(=O)/C(=C/c2ccc(-c3ccc(F)cc3O)o2)S1 : fulfilled
CCc1c2c(nc3ccc(OC(=O)N4CCC(N5CCCCC5)CC4)cc13)-c1cc3c(c(=O)n1C2)COC(=O)[C@]3(O)CC [Irinotecan HCl; Irinotecan hydrochloride] : not fulfilled
CC1=C(/C=C/C(C)=C/C=C/C(C)=C/C(=O)O)C(C)(C)CCC1 [Retinoic acid; Tretinoin; 13-cis-retinoic acid] : not fulfilled
CN(Cc1cnc2nc(N)nc(N)c2n1)c1ccc(C(=O)N[C@@H](CCC(=O)O)C(=O)O)cc1 [Methotrexate hydrate; Methotrexate] : fulfilled

QUERY: Hi there! Is relative viability for `CC(C)Cn1cnc2c(N)nc3ccccc3c21` below 0.9, do you know?
RESULT: fulfilled

QUERY: Strictly below 0.9 in relative viability? `CNC(=O)c1c(F)cccc1Nc1nc(Nc2cc3c(cc2OC)CCN3C(=O)CN(C)C)nc2[nH]ccc12`
RESULT: fulfilled

QUERY: Hello, is relative viability of the following compound strictly smaller than 0.9? `O=NN(CCCl)C(=O)NC1CCCCC1`
RESULT: not fulfilled

QUERY: Please determine if `CC(C)(C)Cn1c(N)nc2ccc(-c3[nH]c(C(C)(C)C)nc3-c3ccc(F)cc3)nc21` is below 0.9 in terms of relative viability.
RESULT: not fulfilled

QUERY: Lab note: relative viability threshold 0.9. Does this compound come in strictly under it? `Cc1ccc(NC(=O)c2cccc(N(C)C)c2)cc1NC(=O)c1ccc(O)cc1`
RESULT: not fulfilled

QUERY: Does this compound meet the criterion relative viability < 0.9? `COC(=O)c1ccc2c(C(=Nc3ccc(N(C)C(=O)CN4CCN(C)CC4)cc3)c3ccccc3)c(O)[nH]c2c1`
RESULT: fulfilled

---

System: A549
MEASUREMENT PROTOCOL: relative viability (normalised to negative control = 1, bortezomib = 0) (fraction); higher = less cytotoxic
STUDY CONDITIONS: inflammatory serum-free RHB-A with cytokines + LPS; 5 d + 24 h CellTiter-Blue; compound 300 nM; GSK126 pretreatment: none (vehicle)
RECORDED ENDPOINT: relative viability
Answers are plain numbers.

# example entries with known answers
NC(=O)c1ccc(N(C(N)=O)c2c(F)cccc2F)nc1-c1ccc(F)cc1F : 0.995
COc1cc2nccc(Oc3ccc(NC(=O)Nc4cc(C)on4)c(Cl)c3)c2cc1OC : 1.18
Nc1ncn([C@H]2C[C@H](O)[C@@H](CO)O2)c(=O)n1 : 0.836
O=C(NOCC1CC1)c1ccc(F)c(F)c1Nc1ccc(I)cc1Cl : 0.312
CCCCC(=O)OCC(=O)[C@]1(O)Cc2c(O)c3c(c(O)c2[C@@H](O[C@H]2C[C@H](NC(=O)C(F)(F)F)[C@H](O)[C@H](C)O2)C1)C(=O)c1c(OC)cccc1C3=O : 0.879

State recorded relative viability for all listed compounds.
1. c1cncc(CN2CCC(n3ncc4c(N5CCOCC5)nc(-c5ccc6[nH]ccc6c5)nc43)CC2)c1
2. C=CC(=O)Nc1cccc(Sc2nc(Nc3ccc(N4CCN(C)CC4)cc3)ncc2Cl)c1
3. CCCS(=O)(=O)Nc1ccc(F)c(C(=O)c2c[nH]c3ncc(Cl)cc23)c1F
4. COC(=O)Nc1ccc(-c2nc(N3CCOCC3)c3cnn(C4CCN(C(=O)OC)CC4)c3n2)cc1
5. N#C/C(=C/c1ccc(O)c(O)c1)C(=O)NCc1ccccc1
6. CO[C@H]1C[C@@H]2CC[C@@H](C)[C@@](O)(O2)C(=O)C(=O)N2CCCC[C@H]2C(=O)O[C@H]([C@H](C)C[C@@H]2CC[C@@H](OCCO)[C@H](OC)C2)CC(=O)[C@H](C)/C=C(\C)[C@@H](O)[C@@H](OC)C(=O)[C@H](C)C[C@H](C)/C=C/C=C/C=C/1C [Everolimus; Everolimus(RAD001)]

RESULT:
1. 0.761
2. 0.477
3. 1.02
4. 0.588
5. 0.873
6. 0.582

I'm hoping you can list relative viability for every compound here, please.
1. O=C1NC(=O)/C(=C\c2ccc3nccnc3c2)S1
2. CCS(=O)(=O)Nc1ccc2[nH]c(O)c(C(=Nc3ccc(CN4CCCCC4)cc3)c3ccccc3)c2c1

RESULT:
1. 0.946
2. 0.331

---

Test system: A549
MEASUREMENT PROTOCOL: relative viability (normalised to negative control = 1, bortezomib = 0) (fraction); higher = less cytotoxic
STUDY CONDITIONS: inflammatory serum-free RHB-A with cytokines + LPS; 5 d + 24 h CellTiter-Blue; compound 300 nM; GSK126 pretreatment: none (vehicle)
Where a name gives a salt, the structure may show the parent alone.
RECORDED ENDPOINT: relative viability
Numbers only.

Here is how some compounds turned out for relative viability.
Nc1ccn([C@@H]2O[C@H](CO)[C@@H](O)C2(F)F)c(=O)n1 [Gemcitabine hydrochloride; Gemcitabine HCl] : 0.19
O=C1NC(=O)/C(=C/c2ccc(-c3ccc(F)cc3O)o2)S1 : 0.839
NC1(c2ccc(-c3nc4ccn5c(=O)[nH]nc5c4cc3-c3ccccc3)cc2)CCC1 : 0.522
Cc1ccc(Nc2nccc(N(C)c3ccc4c(C)n(C)nc4c3)n2)cc1S(N)(=O)=O [Pazopanib Hydrochloride] : 1.09
O=c1cc(N2CCOCC2)oc2c(-c3ccccc3)cccc12 : 0.835

Batch of 6 compounds: report relative viability for each.
1. Oc1ncnc2[nH]ncc12
2. CC1=C(/C=C/C(C)=C/C=C/C(C)=C/C(=O)O)C(C)(C)CCC1 [Retinoic acid; Tretinoin; 13-cis-retinoic acid]
3. Cc1cnc(Nc2ccc(N3CCN(C)CC3)cc2)nc1Nc1cccc(S(=O)(=O)NC(C)(C)C)c1
4. O=NN(CCCl)C(=O)NCCCl
5. CNC(=O)c1cc(Oc2ccc(NC(=O)Nc3ccc(Cl)c(C(F)(F)F)c3)c(F)c2)ccn1 [Regorafenib; BAY 73-4506(Regorafenib)]
6. OCCn1cc(-c2cnc3nnn(Cc4ccc5ncccc5c4)c3n2)cn1

RESULT:
1: 0.974; 2: 1.14; 3: 1.27; 4: 0.955; 5: 0.913; 6: 0.956
